Target: Solute carrier family 12 member 5 (Homo sapiens, UniProt Q9H2X9)
Sequence (Q9H2X9 whole entry): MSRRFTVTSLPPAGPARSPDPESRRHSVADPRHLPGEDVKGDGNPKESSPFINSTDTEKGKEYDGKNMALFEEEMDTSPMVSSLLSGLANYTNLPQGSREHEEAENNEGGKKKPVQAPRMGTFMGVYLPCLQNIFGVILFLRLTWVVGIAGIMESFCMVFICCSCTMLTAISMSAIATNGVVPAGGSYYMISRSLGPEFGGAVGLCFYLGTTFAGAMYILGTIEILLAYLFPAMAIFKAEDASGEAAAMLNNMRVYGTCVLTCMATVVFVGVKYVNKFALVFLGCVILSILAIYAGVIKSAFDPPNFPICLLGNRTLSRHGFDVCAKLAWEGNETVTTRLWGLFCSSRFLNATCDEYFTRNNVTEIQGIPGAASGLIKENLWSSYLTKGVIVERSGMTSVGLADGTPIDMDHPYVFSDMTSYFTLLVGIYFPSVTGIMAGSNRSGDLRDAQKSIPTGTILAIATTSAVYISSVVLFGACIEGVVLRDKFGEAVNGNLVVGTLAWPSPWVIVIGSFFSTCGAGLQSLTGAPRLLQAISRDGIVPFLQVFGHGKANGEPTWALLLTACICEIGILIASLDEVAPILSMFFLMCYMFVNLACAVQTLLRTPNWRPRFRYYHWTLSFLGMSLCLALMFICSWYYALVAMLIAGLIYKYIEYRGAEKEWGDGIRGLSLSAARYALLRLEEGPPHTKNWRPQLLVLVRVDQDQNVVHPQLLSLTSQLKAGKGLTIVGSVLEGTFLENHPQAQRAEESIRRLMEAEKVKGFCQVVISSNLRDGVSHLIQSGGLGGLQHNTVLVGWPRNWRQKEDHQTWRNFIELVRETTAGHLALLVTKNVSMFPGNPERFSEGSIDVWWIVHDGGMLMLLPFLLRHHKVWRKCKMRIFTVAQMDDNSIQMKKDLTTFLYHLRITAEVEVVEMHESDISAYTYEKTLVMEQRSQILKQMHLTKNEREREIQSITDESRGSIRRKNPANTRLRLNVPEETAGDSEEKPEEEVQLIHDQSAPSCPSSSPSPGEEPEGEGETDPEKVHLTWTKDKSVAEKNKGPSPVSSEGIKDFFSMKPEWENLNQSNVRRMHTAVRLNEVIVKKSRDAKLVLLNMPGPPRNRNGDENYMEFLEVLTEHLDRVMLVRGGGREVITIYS
Assay: concentration-response of KCC2 transport modulators – cell-based, HEK293 KCC2, FluoZin-2 fluorescence, dose response (AID 1736)
The label rule met is reserved for EC50 strictly under 5 µM; rule not met covers values equal to or above it.

A selection of reference data follows.
O=C(CSc1ccccc1C(=O)NCc1ccccc1)NC12CC3CC(CC(C3)C1)C2; rule not met
CCn1c(=O)n(CC)c2cc(S(=O)(=O)N3CCC(c4ccccc4)CC3)ccc21; rule not met
O=C(c1ccc(-c2ccccc2)cc1)C1CCCN(Cc2ccncc2)C1 (stereo not given); rule met
CN(Cc1ccccc1)S(=O)(=O)c1ccc(Cl)c(C(=O)NCCc2ccccn2)c1; rule met
O=[N+]([O-])c1ccc(CSc2nnc(SCc3ccccc3)s2)cc1; rule met
S=C(NCc1cccnc1)Nc1ccc(Oc2ccccc2)cc1; rule met
O=C(CSc1ncccc1-c1nc2ccccc2[nH]1)N1CCN(c2ccccc2F)CC1; rule not met
O=C(C1CCN(c2nnc(-n3cccc3)s2)CC1)N1CCc2ccccc2C1; rule not met

We next turn to a different compound, shown below.
// query Lab note: EC50 threshold 5 µM. Does this compound come in strictly under it? CSCCC(=O)N1CCCC(CNC(=O)c2ccc(-c3ccccc3)cc2)C1 (stereo not given)
// result rule not met
